Species: Rattus norvegicus
Assay details: Open TG-GATES - Regimen: Daily Repeat
Format: toxicity, organism-based, Sprague-Dawley
Design: regimen Daily Repeat, gender Male, age 6 weeks
Test parameters: in vivo, po, 1000 mg/kg, […], tissue Blood, route gavage, dose level High, time 28 day
// reported Lym for each item listed
Observed property: Lym (%)

Compound: O=C(O)c1cccnc1 [NIACIN]
Reading unit: %
Numeric readout: 75.6
//
Compound: CCN1CCCC1CNC(=O)c1cc(S(N)(=O)=O)ccc1OC (centres undefined) [SULPIRIDE]
Reading unit: %
Numeric readout: 80
//
Compound: O=C(N[C@H](CO)[C@H](O)c1ccc([N+](=O)[O-])cc1)C(Cl)Cl [CHLORAMPHENICOL]
Reading unit: %
Numeric readout: 87.4
//
Compound: CC(C)(S)[C@@H](N)C(=O)O [PENICILLAMINE]
Reading unit: %
Numeric readout: 71.2
